# Tested on: NCI/ADR-RES ovarian
# ASSAY: NCI-60 one-dose screen, 48 h (100 = growth as untreated, 0 = no growth, -100 = all killed)
# MEASUREMENT_SETUP: 10 µM unless noted
This is part of a sample that, as a whole, favours compounds with a hit. Of some 83,000 tested, about 20% had one in any assay.
Measured growth, listed per entry.
Lab book: enter the figure in %, no units written.

# count of solved cases: 5
| COMPOUND | TEST_VALUE |
| --- | --- |
| COc1ccc(Cn2cc3c(c2-c2ccccc2)CCc2cnoc2-3)cc1N | -1.43 |
| CCCCCCCCCC(C)NC(=O)CCl (stereo not drawn) | 101 |
| O=C(Nc1cccc(Cn2c(=O)[nH]c3ccc(Oc4ncccn4)cc3c2=O)c1)c1cc(Cl)cc(Cl)c1 | 86.3 |
| CN1NC(c2ccccc2)NN(C)C1=O | 101 |
| O=C(O)CS(=O)c1ccc(Cl)cc1 (stereo not drawn) | 109 |

Value lookup for growth; key = CCOC(=O)C1=C(c2ccccc2)NC(=O)NC1CN1C(=O)c2ccccc2C1=O (stereo not drawn) 103

I have this compound here, COC(=O)Nc1nc2ccc(C(=O)c3ccccc3N(C)C3COC3)cc2[nH]1 , and I need its recorded growth. 53.3
